B1: TPR t1 (parent)
chain: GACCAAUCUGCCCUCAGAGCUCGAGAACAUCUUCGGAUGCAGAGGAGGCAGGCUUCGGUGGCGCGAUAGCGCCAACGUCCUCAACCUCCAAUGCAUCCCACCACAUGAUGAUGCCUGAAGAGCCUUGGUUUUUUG

- Variants of: B1
- experimental-protocol: polymerase ribozyme fitness, log enrichment relative to wild type (log ratio); higher = more active; in vitro selection for triplet polymerase activity
If the reported polymerase ribozyme fitness (log ratio) equals or exceeds -4, assign 1.0. If not, assign 0.0.

# mutant-code, class-name
data = [
    ("G39U G51A A118G", 0.0),
    ("G44A C49U A50C U78C U133G G135U", 1.0),
    ("U59C U78C A83U C115A", 1.0),
    ("G36A G69A C73A G122A", 0.0),
    ("U78G G93A G120U", 1.0),
    ("A118U G120A", 1.0),
    ("U14A C115U", 1.0),
    ("C79U U81A", 1.0),
    ("C79G C85A", 1.0),
    ("C22U C56U C114U", 0.0),
    ("A2U C64U A83G A111C", 0.0),
]
